# MEASUREMENT_TARGET: Arachidonate 5-lipoxygenase (Bos taurus)
# Sequence (Q9BEG3 whole entry): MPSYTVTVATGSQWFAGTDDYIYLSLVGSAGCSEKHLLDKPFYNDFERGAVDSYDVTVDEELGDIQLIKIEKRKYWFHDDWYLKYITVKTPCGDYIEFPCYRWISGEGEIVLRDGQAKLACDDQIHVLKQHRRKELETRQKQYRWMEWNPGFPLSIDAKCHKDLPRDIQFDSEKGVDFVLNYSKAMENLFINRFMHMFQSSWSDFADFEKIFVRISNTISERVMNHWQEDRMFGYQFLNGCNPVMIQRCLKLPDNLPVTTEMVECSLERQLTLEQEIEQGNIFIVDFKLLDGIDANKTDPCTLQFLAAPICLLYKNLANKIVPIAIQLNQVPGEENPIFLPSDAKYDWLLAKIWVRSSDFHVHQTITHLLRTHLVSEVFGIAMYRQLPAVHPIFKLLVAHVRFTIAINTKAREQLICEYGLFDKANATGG
# TEST: 5-LO inhibitory activity was determined by inhibition of LTB4 biosynthesis in bovine polymorphonuclear leukocytes (PMNL)
pIC50: −log10 of the molar value.
Decision: pIC50 >= 5 yields True, all other cases yield False.

Q: Is the recorded value of pIC50 equal to or greater than 5 for this compound? CCCCC(=O)C1c2cccc(O)c2C(=O)c2c(O)cccc21
A: False

Q: Is the recorded value of pIC50 equal to or greater than 5 for this compound? O=C1c2ccccc2Cc2ccc(O)c(O)c21
A: True

Q: Is the recorded value of pIC50 equal to or greater than 5 for this compound? O=C1c2cccc(O)c2Cc2c(O)cccc21
A: True

Q: Is the recorded value of pIC50 equal to or greater than 5 for this compound? CC(C)=CCc1c(C)c(CC=C(C)C)c2c(c1O)C(=O)c1c(O)cc(O)c(CC=C(C)C)c1C2 [HARUNGANOL B]
A: False

Q: Is the recorded value of pIC50 equal to or greater than 5 for this compound? O=C(O)c1cc(O)c2c(c1)Cc1cccc(O)c1C2=O
A: True

Q: Is the recorded value of pIC50 equal to or greater than 5 for this compound? CC(=O)C1c2cccc(O)c2C(=O)c2c(O)cccc21
A: False

Q: Is the recorded value of pIC50 equal to or greater than 5 for this compound? O=C(c1ccccc1O)c1ccccc1O [2,2'-DIHYDROXYBENZPHENONE]
A: False

Q: Is the recorded value of pIC50 equal to or greater than 5 for this compound? c1ccc2cc3ccccc3cc2c1
A: False

Q: Is the recorded value of pIC50 equal to or greater than 5 for this compound? O=C1c2ccccc2Cc2ccccc21 [ANTHRONE]
A: True

Q: Is the recorded value of pIC50 equal to or greater than 5 for this compound? CC(C)=CCc1c(C)cc(O)c2c1Cc1c(CC=C(C)C)c(O)cc(O)c1C2=O
A: False

Q: Is the recorded value of pIC50 equal to or greater than 5 for this compound? Oc1cccc(O)c1O [PYROGALLOL]
A: True

###

# TEST: Partition coefficient (logP)
# Format: physicochemical
# RECORDED_CONDITIONS: octanol/water
Binary label based on logP with cut-off 4: below gives yes (1), not below gives no (0).

Q: Just wondering, is logP of O=CC1c2cccc(O)c2C(=O)c2c(O)cccc21 below 4?
A: yes (1)

Q: Just wondering, is logP of CC(=O)Oc1cccc2c1C(=O)c1c(cccc1OC(C)=O)C2 below 4?
A: yes (1)

Q: Just wondering, is logP of COC(=O)c1cc(O)c2c(c1)Cc1cccc(O)c1C2=O below 4?
A: no (0)

Q: Just wondering, is logP of Nc1cccc2c1C(=O)c1ccccc1C2 below 4?
A: yes (1)

Q: Just wondering, is logP of CCC1c2cccc(O)c2C(=O)c2c(O)cccc21 below 4?
A: no (0)

###

Hi there, I'd appreciate the recorded kDPPH for every entry that follows.
# TEST: Antioxidant potential was assessed from reducing activity against 2,2,di-phenyl-1-picrylhydrazyl.
Write it as a number; the unit M⁻¹ s⁻¹ goes unstated.

Q: # query: kDPPH of entry O=C1C=CC(=O)c2c(O)ccc(O)c21
A: 41.5

Q: # query: kDPPH of entry COc1cccc2c1C(=O)c1c(O)cccc1C2
A: 4.6

Q: # query: kDPPH of entry Nc1cccc2c1Cc1ccccc1C2=O
A: 15.3

Q: # query: kDPPH of entry N=C1c2c(O)cccc2Cc2cccc(O)c21
A: 2.7

Q: # query: kDPPH of entry CCCCC(=O)C1c2cccc(O)c2C(=O)c2c(O)cccc21
A: 7

Q: # query: kDPPH of entry O=C1c2ccccc2Cc2cccc(O)c21
A: 9.6

Q: # query: kDPPH of entry CC(=O)Oc1cccc2c1C(=O)c1c(O)cccc1C2
A: 16.1

Q: # query: kDPPH of entry Nc1cccc2c1C(=O)c1ccccc1C2
A: 50.5

// data source = ChEMBL document CHEMBL1130234
